- measured target: full-length human PHD2 (Homo sapiens (Human))
- assay comment: TR-FRET assay for PHD enzymes, PHD2
pIC50: −log10 of the molar value.
Task for the reader: assign each of the following compounds its reported pIC50.

Recorded pIC50, per entry:
Cc1cc(Cc2ccc(F)cc2)c(O)c(C(=O)NCC(=O)O)n1: 6.00 to 7.00
Cc1c(Oc2ccccc2)cnc(C(=O)NCC(=O)O)c1O: 6.00 to 7.00
Cc1c(-c2cccc(Cl)c2)cnc(C(=O)NC2(C(=O)O)CCC2)c1O: < 5.00
O=C(O)CNC(=O)c1ncc(-c2cccc(Cl)c2)c(C(F)F)c1O: 6.00 to 7.00
Cc1c(-c2cccc(Cl)c2)cnc(C(=O)NC2(C(=O)O)CC2)c1O: 5.00 to 6.00
Cc1ncccc1-c1cnc(C(=O)NCC(=O)O)c(O)c1C: 6.00 to 7.00

Please supply pIC50 for each of the following items, keeping them in order.
1. Cc1c(-c2cnn(-c3ccccc3)c2C)cnc(C(=O)NCC(=O)O)c1O
2. Cc1c(-c2nn[nH]n2)cnc(C(=O)NCC(=O)O)c1O
3. Cc1c(Sc2ccccc2)cnc(C(=O)NCC(=O)O)c1O
4. Cc1c(C(=O)c2ccccc2)cnc(C(=O)NCC(=O)O)c1O
5. Cc1c(Cc2ccccc2)cnc(C(=O)NCC(=O)O)c1O
6. Cc1c(CCc2ccccc2)cnc(C(=O)NCC(=O)O)c1O

Result:
1: 6.00 to 7.00; 2: 6.00 to 7.00; 3: 6.00 to 7.00; 4: 6.00 to 7.00; 5: 6.00 to 7.00; 6: 6.00 to 7.00

----------
- measured target: full-length human PHD1 (Homo sapiens (Human))
pIC50: −log10 of the molar value.
reported endpoint: pIC50

Cc1c(-c2cccc(F)c2)cnc(C(=O)NCC(=O)O)c1O: > 7.00
Cc1ncccc1-c1cnc(C(=O)NCC(=O)O)c(O)c1C: 6.00 to 7.00
Cc1c(-c2cccc(Cl)c2)cnc(C(=O)NC2(C(=O)O)COC2)c1O: 5.00 to 6.00
Cc1c(-c2cn(-c3ccc(F)cc3)nn2)cnc(C(=O)NCC(=O)O)c1O: > 7.00
Cc1c(-c2ccccn2)cnc(C(=O)NCC(=O)O)c1O: > 7.00

Please give pIC50, item by item, for the list that follows.
1. Cc1c(-c2nnn(-c3cc(Cl)cc(Cl)c3)n2)cnc(C(=O)NCC(=O)O)c1O
2. Cc1c(Oc2ccccc2)cnc(C(=O)NCC(=O)O)c1O [Compound 57]
3. Cc1c(-c2ccc3ncccc3c2)cnc(C(=O)NCC(=O)O)c1O
4. Cc1c(-c2cccnc2)cnc(C(=O)NCC(=O)O)c1O
5. Cc1c(-c2cnn(C3CCN(C(=O)OC(C)(C)C)CC3)c2)cnc(C(=O)NCC(=O)O)c1O
6. Cc1c(CCc2ccccc2)cnc(C(=O)NCC(=O)O)c1O
7. Cc1nn(-c2ccc(F)cc2)cc1-c1cnc(C(=O)NCC(=O)O)c(O)c1C
8. Cc1c(-c2cnn(-c3ccccc3)c2)cnc(C(=O)NCC(=O)O)c1O

Result:
["> 7.00", "5.00 to 6.00", "> 7.00", "> 7.00", "> 7.00", "6.00 to 7.00", "> 7.00", "> 7.00"]

Hello, I would appreciate it if you could give pIC50 for each entry below.
1. Cc1cc(Cc2ccc(F)cc2)c(O)c(C(=O)NCC(=O)O)n1
2. Cc1c(-c2cnc(-c3ccccc3)o2)cnc(C(=O)NCC(=O)O)c1O
3. Cc1c(-c2cnn(-c3ccccc3)c2C)cnc(C(=O)NCC(=O)O)c1O

Result:
1. 6.00 to 7.00
2. > 7.00
3. 6.00 to 7.00

State recorded pIC50 for all listed molecules.
1. Cc1c(-c2cccc(Cl)c2)cnc(C(=O)NC2(C(=O)O)CCC2)c1O
2. Cc1c(-c2nn[nH]n2)cnc(C(=O)NCC(=O)O)c1O
3. O=C(O)CNC(=O)c1ncc(-c2cccc(Cl)c2)c(C(F)F)c1O

Result:
< 5.00
6.00 to 7.00
6.00 to 7.00

----------
I'd be grateful if you could share measured pIC50 for these entries.
- measured target: full-length human PHD1 (Homo sapiens (Human), UniProt Q96KS0)
- Sequence (Q96KS0 whole entry): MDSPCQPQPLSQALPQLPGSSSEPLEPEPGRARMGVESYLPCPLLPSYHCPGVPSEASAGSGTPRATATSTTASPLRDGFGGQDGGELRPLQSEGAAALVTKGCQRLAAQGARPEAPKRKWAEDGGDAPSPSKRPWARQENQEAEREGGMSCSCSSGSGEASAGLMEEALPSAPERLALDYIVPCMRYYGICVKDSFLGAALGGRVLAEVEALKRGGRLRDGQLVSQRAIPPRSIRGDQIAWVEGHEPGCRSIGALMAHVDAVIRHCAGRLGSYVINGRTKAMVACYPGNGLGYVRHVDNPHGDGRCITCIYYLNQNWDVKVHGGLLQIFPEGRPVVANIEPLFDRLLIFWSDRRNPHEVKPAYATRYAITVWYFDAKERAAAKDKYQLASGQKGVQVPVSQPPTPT
pIC50: −log10 of the molar value.

Study these solved cases before continuing.
Cc1c(-c2cccc(Oc3ccccc3)c2)cnc(C(=O)NCC(=O)O)c1O: > 7.00
Cc1c(N2CCN(c3ccccc3)CC2)cnc(C(=O)NCC(=O)O)c1O: > 7.00
Cc1c(-c2ccncc2)cnc(C(=O)NCC(=O)O)c1O: > 7.00
Cc1c(S(=O)(=O)c2ccccc2)cnc(C(=O)NCC(=O)O)c1O: 6.00 to 7.00
Cc1c(-c2nnn(-c3ccc(Cl)cc3)n2)cnc(C(=O)NCC(=O)O)c1O: > 7.00
Cc1c(-c2cnn(-c3cc(Cl)cc(Cl)c3)c2)cnc(C(=O)NCC(=O)O)c1O: > 7.00
Cc1c(-c2cc(Cl)cc(Cl)c2)cnc(C(=O)NCC(=O)O)c1O: > 7.00
Cc1nn(-c2cccc(F)c2)cc1-c1cnc(C(=O)NCC(=O)O)c(O)c1C: > 7.00
Cc1c(-c2cn(CCc3ccc(Cl)cc3)nn2)cnc(C(=O)NCC(=O)O)c1O: > 7.00
Cc1nc(-c2ccccc2)sc1-c1cnc(C(=O)NCC(=O)O)c(O)c1C: > 7.00

# per-item lookup of pIC50; items listed below
1. Cc1cc(CCOCc2ccccc2)c(O)c(C(=O)NCC(=O)O)n1
2. Cc1c(-c2ccc3cnccc3c2)cnc(C(=O)NCC(=O)O)c1O
3. Cc1c(Sc2ccccc2)cnc(C(=O)NCC(=O)O)c1O
4. Cc1ccc2cc(-c3cnc(C(=O)NCC(=O)O)c(O)c3C)ccc2n1
5. Cc1c(C#Cc2ccccc2)cnc(C(=O)NCC(=O)O)c1O

Result:
6.00 to 7.00
> 7.00
5.00 to 6.00
> 7.00
> 7.00

----------
- measured target: full-length human PHD1 (Homo sapiens (Human), UniProt Q96KS0)
- assay comment: TR-FRET assay for PHD enzymes, PHD1
- Type: biochemical
- assay context: TR-FRET, 15 nM PHD1, 1 μM 2-OG
Task for the reader: assign each of the following compounds its reported IC50.

Cc1c(-c2cnn(-c3ccccn3)c2)cnc(C(=O)NCC(=O)O)c1O [Compound 18]: < 100 nM
Cc1c(-c2cccc(Cl)c2)cnc(C(=O)NCC(=O)O)c1O [Compound 32]: < 100 nM
Cc1c(-c2cn(CCCc3ccc(Cl)cc3)nn2)cnc(C(=O)NCC(=O)O)c1O [Compound 43]: < 100 nM
COc1cccc(-c2cnc(C(=O)NCC(=O)O)c(O)c2C)c1 [Compound 2]: < 100 nM
Cc1c(N2CCC(c3ccccc3)CC2)cnc(C(=O)NCC(=O)O)c1O [Compound 56]: < 100 nM
Cc1c(-c2cccc(Cl)c2)cnc(C(=O)NC2(C(=O)O)CC2)c1O [Compound 14]: 1000 to 10000 nM

// for each compound below, give its IC50
1. O=C(O)CNC(=O)c1ncc(-c2cccc(Cl)c2)c(C2CC2)c1O [Compound 69]
2. Cc1c(-c2ccc3ccccc3c2)cnc(C(=O)NCC(=O)O)c1O [Compound 33]
3. Cc1c(-c2cnc(-c3ccccc3)s2)cnc(C(=O)NCC(=O)O)c1O [Compound 7]

Result:
1: 100 to 1000 nM; 2: < 100 nM; 3: < 100 nM

----------
- measured target: full-length human PHD2 (Homo sapiens (Human), UniProt Q9GZT9)
- Sequence (Q9GZT9 whole entry): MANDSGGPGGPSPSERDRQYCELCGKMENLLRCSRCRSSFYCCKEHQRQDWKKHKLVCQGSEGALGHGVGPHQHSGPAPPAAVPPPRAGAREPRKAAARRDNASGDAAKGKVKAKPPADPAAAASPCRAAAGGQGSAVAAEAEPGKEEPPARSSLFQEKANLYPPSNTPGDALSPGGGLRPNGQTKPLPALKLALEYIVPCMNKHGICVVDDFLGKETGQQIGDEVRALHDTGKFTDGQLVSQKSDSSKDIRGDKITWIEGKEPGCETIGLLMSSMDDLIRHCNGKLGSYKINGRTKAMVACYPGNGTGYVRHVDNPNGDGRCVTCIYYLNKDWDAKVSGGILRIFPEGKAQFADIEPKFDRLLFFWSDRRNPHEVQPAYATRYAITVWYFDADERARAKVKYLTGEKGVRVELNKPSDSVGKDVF
- assay comment: TR-FRET assay for PHD enzymes, PHD2
pIC50: −log10 of the molar value.
Assignment: determine reported pIC50 for the given compounds.

O=C(O)CNC(=O)c1ncc(-c2cccc(Cl)c2)c(C2CC2)c1O: 6.00 to 7.00
Cc1c(S(=O)(=O)c2ccccc2)cnc(C(=O)NCC(=O)O)c1O: 6.00 to 7.00
Cc1c(N2CCN(c3ccccc3)CC2)cnc(C(=O)NCC(=O)O)c1O: 6.00 to 7.00
Cc1c(-c2cccc(Cl)c2)cnc(C(=O)NC2(C(=O)O)COC2)c1O: < 5.00
Cc1cc(CCOCc2ccccc2)c(O)c(C(=O)NCC(=O)O)n1: 6.00 to 7.00

Return reported pIC50 values for all items listed beneath this line.
1. Cc1c(-c2ccn(-c3ccccc3)c2)cnc(C(=O)NCC(=O)O)c1O
2. Cc1c(-c2cccc(Cl)c2)cnc(C(=O)NC(C)(C)C(=O)O)c1O

Result:
1. 6.00 to 7.00
2. < 5.00

----------
Let's go through some recorded IC50 values for full-length human PHD1 (Homo sapiens (Human)) together.

Cc1c(-c2cnc3ccccc3c2)cnc(C(=O)NCC(=O)O)c1O: < 100 nM
Cc1c(-c2cnn(-c3ccc(F)cc3)c2)cnc(C(=O)NCC(=O)O)c1O: < 100 nM
Cc1c(-c2nnn(-c3ccccc3)n2)cnc(C(=O)NCC(=O)O)c1O: < 100 nM
Cc1c(-c2cccc(Cl)c2)cnc(C(=O)NC(C)(C)C(=O)O)c1O: > 10000 nM
Cc1c(Oc2ccccc2)cnc(C(=O)NCC(=O)O)c1O [Compound 35]: 100 to 1000 nM

Below: the item to evaluate.
Query: Please give measured IC50 of the following entry: Cc1c(C#CCOc2ccccc2)cnc(C(=O)NCC(=O)O)c1O
Result: < 100 nM
